# target-system: NAD(P)H dehydrogenase [quinone] 1 (printed NOQ-1) (Homo sapiens)
# Sequence (P15559 whole entry): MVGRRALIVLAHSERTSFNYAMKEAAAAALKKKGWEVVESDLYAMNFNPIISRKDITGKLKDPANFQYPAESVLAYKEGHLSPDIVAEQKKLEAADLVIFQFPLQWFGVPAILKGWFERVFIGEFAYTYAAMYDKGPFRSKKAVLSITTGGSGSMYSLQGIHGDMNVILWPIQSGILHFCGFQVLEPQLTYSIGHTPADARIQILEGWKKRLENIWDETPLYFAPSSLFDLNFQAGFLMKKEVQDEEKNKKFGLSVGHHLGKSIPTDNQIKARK
# measurement-protocol: Activity of NOQ-1 expressed in human HT-29 cell lysate assessed as compound remaining at 185 KBq after 2 hrs by reversed phase TLC analysis
# Assay type: ADME, cell-free
# study-conditions: read-out: Stability
readout-name: remaining at 2 h, 185 KBq (%)
Your answer is read as %, so omit the unit and give the number.

Task item: Observed remaining at 2 h, 185 KBq on NAD(P)H dehydrogenase [quinone] 1 (printed NOQ-1) (Homo sapiens) for `COC1=CC(=O)c2c(c(CSc3ccc([125I])cc3)c(C)n2C)C1=O` , please.
Reply: 92

* * *

# measurement-protocol: Stability in mouse plasma assessed as compound remaining at 74 KBq after 24 hrs by reversed phase TLC analysis
# Type: ADME, cell-free
# study-conditions: read-out: Stability
readout-name: remaining at 24 h, 74 KBq (%)

structure	measurement-units	remaining at 24 h, 74 KBq
COC1=CC(=O)c2c(c(COc3ccc([125I])cc3)c(C)n2C)C1=O	%	80
COC1=CC(=O)c2c(c(COc3cccc([125I])c3)c(C)n2C)C1=O	%	80

* * *

# measurement-protocol: Drug metabolism in human HT-29 cells assessed as compound remaining at 18.5 kBq after 60 mins by reversed phase TLC analysis
# Format: ADME, cell-based
# study-conditions: read-out: Stability
// remaining at 1 h, 18.5 kBq lookup, one value per entry

structure	remaining at 1 h, 18.5 kBq
COC1=CC(=O)c2c(c(COc3cccc([125I])c3)c(C)n2C)C1=O	< 10%

Task item: // lookup remaining at 1 h, 18.5 kBq for `COC1=CC(=O)c2c(c(COc3ccc([125I])cc3)c(C)n2C)C1=O`
Reply: < 10%

* * *

# measurement-protocol: Stability of the compound in PBS assessed as compound remaining at 74 KBq at pH 7.4 after 24 hrs by reversed phase TLC analysis
# Type: physicochemical
# study-conditions: read-out: Stability
readout-name: remaining at 24 h, 74 KBq

The cases that follow already have their remaining at 24 h, 74 KBq on record.
structure	remaining at 24 h, 74 KBq
COC1=CC(=O)c2c(c(COc3cccc([125I])c3)c(C)n2C)C1=O	> 90%
COC1=CC(=O)c2c(c(CSc3ccc([125I])cc3)c(C)n2C)C1=O	> 90%

Now let's try a different one.
Task item: // lookup remaining at 24 h, 74 KBq for `COC1=CC(=O)c2c(c(COc3ccc([125I])cc3)c(C)n2C)C1=O`
Reply: > 90%

* * *

# measurement-protocol: Drug metabolism in human A549 cells assessed as compound remaining at 18.5 kBq after 60 mins by reversed phase TLC analysis
# Type: ADME, cell-based
# study-conditions: read-out: Stability
readout-name: remaining at 1 h, 18.5 kBq

Task item: // lookup remaining at 1 h, 18.5 kBq for `COC1=CC(=O)c2c(c(CSc3ccc([125I])cc3)c(C)n2C)C1=O`
Reply: > 85%
